# key: entry, value: Tumor:Muscle ratio
# Tested on: mice bearing PSMA-expressing LNCAP cancer xenografts
# assay.text: Biodistribution of 68Ga-labeled compounds
# Assay type: in vivo
# condition: 1 h post-injection
// return just the number, without any unit appended

// worked examples, Tumor:Muscle ratio included
O=C([O-])CN1CCN(CC(=O)[O-])CCN(CC(=O)NCCCC[C@H](NC(=O)CNC(=O)CCCc2ccc([N+](=O)[O-])cc2)C(=O)NC[C@H]2CC[C@H](C(=O)N[C@@H](Cc3ccc4ccccc4c3)C(=O)NCCCC[C@H](NC(=O)N[C@@H](CCC(=O)O)C(=O)O)C(=O)O)CC2)CCN(CC(=O)[O-])CC1.[68Ga+3] [^68Ga-HTK03089] = 27.4
O=C([O-])CN1CCN(CC(=O)[O-])CCN(CC(=O)NCCCC[C@H](NC(=O)CNC(=O)CCc2ccccc2)C(=O)NC[C@H]2CC[C@H](C(=O)N[C@@H](Cc3ccc4ccccc4c3)C(=O)NCCCC[C@H](NC(=O)N[C@@H](CCC(=O)O)C(=O)O)C(=O)O)CC2)CCN(CC(=O)[O-])CC1.[68Ga+3] [^68Ga-HTK03082] = 49.2

We next turn to a different compound, shown below.
The reported value for COc1ccc(CCCC(=O)NCC(=O)N[C@@H](CCCCNC(=O)CN2CCN(CC(=O)[O-])CCN(CC(=O)[O-])CCN(CC(=O)[O-])CC2)C(=O)NC[C@H]2CC[C@H](C(=O)N[C@@H](Cc3ccc4ccccc4c3)C(=O)NCCCC[C@H](NC(=O)N[C@@H](CCC(=O)O)C(=O)O)C(=O)O)CC2)cc1.[68Ga+3] [^68Ga-HTK03086] in terms of Tumor:Muscle ratio is 18.8

----------
The following molecules are listed with their measured Spleen uptake values.
# Tested on: mice bearing PSMA-expressing LNCAP cancer xenografts
# assay.text: Biodistribution of 68Ga-labeled compounds
# Assay type: in vivo
# condition: 3 h post-injection
The figure you give is taken to be in % ID/g; do not add the unit.

O=C([O-])CN1CCN(CC(=O)[O-])CCN(CC(=O)NCCCC[C@H](NC(=O)CNC(=O)CCCc2ccc(Br)cc2)C(=O)NC[C@H]2CC[C@H](C(=O)N[C@@H](Cc3ccc4ccccc4c3)C(=O)NCCCC[C@H](NC(=O)N[C@@H](CCC(=O)O)C(=O)O)C(=O)O)CC2)CCN(CC(=O)[O-])CC1.[68Ga+3] [^68Ga-HTK03058] = 2.11

// field: Spleen uptake; key: O=C([O-])CN1CCN(CC(=O)[O-])CCN(CC(=O)NCCCC[C@H](NC(=O)CNC(=O)CCc2ccccc2)C(=O)NC[C@H]2CC[C@H](C(=O)N[C@@H](Cc3ccc4ccccc4c3)C(=O)NCCCC[C@H](NC(=O)N[C@@H](CCC(=O)O)C(=O)O)C(=O)O)CC2)CCN(CC(=O)[O-])CC1.[68Ga+3] [^68Ga-HTK03082] ; value = 0.24

The molecule listed as O=C([O-])CN1CCN(CC(=O)[O-])CCN(CC(=O)NCCCC[C@H](NC(=O)CNC(=O)CCCc2ccc(Cl)cc2)C(=O)NC[C@H]2CC[C@H](C(=O)N[C@@H](Cc3ccc4ccccc4c3)C(=O)NCCCC[C@H](NC(=O)N[C@@H](CCC(=O)O)C(=O)O)C(=O)O)CC2)CCN(CC(=O)[O-])CC1.[68Ga+3] [^68Ga-HTK03055] shows Spleen uptake equal to 3.07

----------
Lungs uptake: recorded values
# System: mice bearing PSMA-expressing LNCAP cancer xenografts
# assay.text: Biodistribution of 68Ga-labeled compounds
# Assay type: in vivo
# condition: 3 h post-injection
Numbers only here, please. The scale is % ID/g.

Use these answered entries as a reference point.
O=C([O-])CN1CCN(CC(=O)[O-])CCN(CC(=O)NCCCC[C@H](NC(=O)CNC(=O)CCCc2ccc([N+](=O)[O-])cc2)C(=O)NC[C@H]2CC[C@H](C(=O)N[C@@H](Cc3ccc4ccccc4c3)C(=O)NCCCC[C@H](NC(=O)N[C@@H](CCC(=O)O)C(=O)O)C(=O)O)CC2)CCN(CC(=O)[O-])CC1.[68Ga+3] [^68Ga-HTK03089] = 2.14
O=C([O-])CN1CCN(CC(=O)[O-])CCN(CC(=O)NCCCC[C@H](NC(=O)CNC(=O)CCCc2ccc(I)cc2)C(=O)NC[C@H]2CC[C@H](C(=O)N[C@@H](Cc3ccc4ccccc4c3)C(=O)NCCCC[C@H](NC(=O)N[C@@H](CCC(=O)O)C(=O)O)C(=O)O)CC2)CCN(CC(=O)[O-])CC1.[68Ga+3] [^68Ga-HTK03024] = 11.6
COc1ccc(CCCC(=O)NCC(=O)N[C@@H](CCCCNC(=O)CN2CCN(CC(=O)[O-])CCN(CC(=O)[O-])CCN(CC(=O)[O-])CC2)C(=O)NC[C@H]2CC[C@H](C(=O)N[C@@H](Cc3ccc4ccccc4c3)C(=O)NCCCC[C@H](NC(=O)N[C@@H](CCC(=O)O)C(=O)O)C(=O)O)CC2)cc1.[68Ga+3] [^68Ga-HTK03086] = 3.49

Quick note, Lungs uptake for Cc1ccc(CCCC(=O)NCC(=O)N[C@@H](CCCCNC(=O)CN2CCN(CC(=O)[O-])CCN(CC(=O)[O-])CCN(CC(=O)[O-])CC2)C(=O)NC[C@H]2CC[C@H](C(=O)N[C@@H](Cc3ccc4ccccc4c3)C(=O)NCCCC[C@H](NC(=O)N[C@@H](CCC(=O)O)C(=O)O)C(=O)O)CC2)cc1.[68Ga+3] [^68Ga-HTK03090] landed at 6.00

----------
# Tested on: mice bearing PSMA-expressing LNCAP cancer xenografts
# assay.text: Biodistribution of 68Ga-labeled compounds
# Format: in vivo
# condition: 1 h post-injection
Lab note: cut-off is 0.8 % ID/g. Strictly less in Intestine uptake is label 1. Exactly 0.8 % ID/g or more is label 0.

Example cases with answers are listed next.
O=C([O-])CN1CCN(CC(=O)[O-])CCN(CC(=O)NCCCC[C@H](NC(=O)CNC(=O)CCCc2ccc(I)cc2)C(=O)NC[C@H]2CC[C@H](C(=O)N[C@@H](Cc3ccc4ccccc4c3)C(=O)NCCCC[C@H](NC(=O)N[C@@H](CCC(=O)O)C(=O)O)C(=O)O)CC2)CCN(CC(=O)[O-])CC1.[68Ga+3] [^68Ga-HTK03024] = label 0
O=C([O-])CN1CCN(CC(=O)[O-])CCN(CC(=O)NCCCC[C@H](NC(=O)CNC(=O)CCc2ccccc2)C(=O)NC[C@H]2CC[C@H](C(=O)N[C@@H](Cc3ccc4ccccc4c3)C(=O)NCCCC[C@H](NC(=O)N[C@@H](CCC(=O)O)C(=O)O)C(=O)O)CC2)CCN(CC(=O)[O-])CC1.[68Ga+3] [^68Ga-HTK03082] = label 1
O=C([O-])CN1CCN(CC(=O)[O-])CCN(CC(=O)NCC2CCC(C(=O)NC(Cc3ccc4cc5ccccc5cc4c3)C(=O)NCCCCC(NC(=O)NC(CCC(=O)O)C(=O)O)C(=O)O)CC2)CCN(CC(=O)[O-])CC1.[68Ga+3] (stereo not drawn) [^68Ga-HTK03027] = label 1
O=C([O-])CN1CCN(CC(=O)[O-])CCN(CC(=O)NCC2CCC(C(=O)NC(Cc3ccc4ccc5cccc6ccc3c4c56)C(=O)NCCCCC(NC(=O)NC(CCC(=O)O)C(=O)O)C(=O)O)CC2)CCN(CC(=O)[O-])CC1.[68Ga+3] (stereo not drawn) [^68Ga-HTK03029] = label 1
CCCCCCC(NC(=O)C1CCC(CNC(=O)CN2CCN(CC(=O)[O-])CCN(CC(=O)[O-])CCN(CC(=O)[O-])CC2)CC1)C(=O)NCCCCC(NC(=O)NC(CCC(=O)O)C(=O)O)C(=O)O.[68Ga+3] (stereo not drawn) [^68Ga-HTK03026] = label 1
O=C([O-])CN1CCN(CC(=O)[O-])CCN(CC(=O)NCCCC[C@H](NC(=O)CNC(=O)CCCc2ccccc2)C(=O)NC[C@H]2CC[C@H](C(=O)N[C@@H](Cc3ccc4ccccc4c3)C(=O)NCCCC[C@H](NC(=O)N[C@@H](CCC(=O)O)C(=O)O)C(=O)O)CC2)CCN(CC(=O)[O-])CC1.[68Ga+3] [^68Ga-HTK03056] = label 1
O=C([O-])CN1CCN(CC(=O)[O-])CCN(CC(=O)NCCCC[C@H](NC(=O)CNC(=O)CCCc2ccc([N+](=O)[O-])cc2)C(=O)NC[C@H]2CC[C@H](C(=O)N[C@@H](Cc3ccc4ccccc4c3)C(=O)NCCCC[C@H](NC(=O)N[C@@H](CCC(=O)O)C(=O)O)C(=O)O)CC2)CCN(CC(=O)[O-])CC1.[68Ga+3] [^68Ga-HTK03089] = label 1
O=C([O-])CN1CCN(CC(=O)[O-])CCN(CC(=O)NCC2CCC(C(=O)NC(Cc3c4ccccc4cc4ccccc34)C(=O)NCCCCC(NC(=O)NC(CCC(=O)O)C(=O)O)C(=O)O)CC2)CCN(CC(=O)[O-])CC1.[68Ga+3] (stereo not drawn) [^68Ga-HTK03041] = label 0

From here, focus on the item given below.
Determine if Nc1ccc(CCCC(=O)NCC(=O)N[C@@H](CCCCNC(=O)CN2CCN(CC(=O)[O-])CCN(CC(=O)[O-])CCN(CC(=O)[O-])CC2)C(=O)NC[C@H]2CC[C@H](C(=O)N[C@@H](Cc3ccc4ccccc4c3)C(=O)NCCCC[C@H](NC(=O)N[C@@H](CCC(=O)O)C(=O)O)C(=O)O)CC2)cc1.[68Ga+3] [^68Ga-HTK03087] shows Intestine uptake strictly lower than 0.8 % ID/g.
label 1
